Ref: PubChem BioAssay

# Test system: Human papillomavirus type 1a E7 protein (residues 1-88)
# PROTOCOL: HPV1a E7 small-molecule binders, primary screen, biochemical, small-molecule microarray, residues 1-88, 635 nm (AID 1129)
# ASSAY_SETUP: small-molecule microarray binding, fluorescence 635 nm; higher = more signal
OBSERVED_PROPERTY: composite z-score

INSERT INTO measurements (mol, value_observed) VALUES
  ('CCCC[C@H]1CN2[C@@H](CC[C@@H](C)[C@@H]2c2ccc(Br)cc2)C(=O)O1', 1.17),
  ('CCOC(=O)CCN1C(=O)[C@H]2[C@H]3[C@H](O)[C@H](O)CC(=NO[C@@H]4O[C@H](CO)[C@@H](O)[C@H](O)[C@H]4O)[C@@H]3CC[C@H]2C1=O', 1.12),
  ('C[C@@H]1C=CCC(=O)OC[C@H](C)C(=O)N[C@@H](Cc2ccccc2)C(=O)OC1', -0.203),
  ('CC(CCN1CCCCc2nc(C)c(C)cc21)=NO[C@@H](C)c1cc(-c2c(C)cc(C)cc2C)no1', -0.384);

----------
Below: a set of entries, each annotated with reported composite z-score.
# TESTED_SYSTEM: Calmodulin-1 (Homo sapiens)
# PROTOCOL: CALM1 binders on microarrays, EGTA buffer, profiling panel, biochemical, small-molecule microarray, Cy5-labelled CALM1 (AID 1111);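 also: labelled calmodulin applied in Tris saline Tween buffer holding calcium plus EGTA and DTT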
# ASSAY_SETUP: Cy5-CALM1 binding fluorescence, higher = more signal
OBSERVED_PROPERTY: composite z-score

INSERT INTO measurements (compound, value_observed) VALUES
  ('CON=C(C)CCC(=O)OC[C@H]1O[C@H](C#Cc2ccccc2)C=C[C@@H]1Oc1ccc(C)cc1', -0.118),
  ('COc1ccc2c(c1)O[C@@H](c1cccc(C(F)(F)F)c1)[C@H](O)C2=O', 0.172),
  ('C[C@]12CCC3c4ccc(OCC5CO5)cc4CCC3C1CC[C@@H]2O (some centres undefined)', 0.964),
  ('COC(=O)[C@H](CCSC)NC(=O)CC=C[C@@H](C)CO', -1.12),
  ('C=CCOCC1CN2[C@@H](CC[C@@H](C)[C@@H]2c2ccc(Br)cc2)C(=O)O1 (some centres undefined)', -0.457),
  ('C[C@H]1CC[C@@H](C(=O)O)N[C@@H]1c1cccc(N2CCCC2=O)c1', -0.438),
  ('CCN(CC)CC(O)CN1CCCCc2nc(C)c(C)cc21 (centres undefined)', -0.397),
  ('CCOC(=O)[C@H](Cc1ccccc1)NC(=O)CCC1CC(OC(=O)NCc2ccc3c(c2)OCO3)CC2(CCCC(COC(=O)NCCOC)O2)O1 (some centres undefined)', 0.353),
  ('COC(=O)[C@H](C)NC(=O)CCC1CC(OC(=O)NCc2cccc3ccccc23)CC2(CCCC(COC(=O)NCCc3ccccc3OC)O2)O1 (some centres undefined)', 0.75);

----------
# Test system: Fibrinogen (Alexa647-labelled)
# PROTOCOL: fibrinogen binders on compound microarrays, profiling panel, artefact control for SMM control-protein annotation, biochemical, small-molecule microarray, 635/667 nm fluorescence (AID 1131);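 also: z-score merges 667 nm fluorescence with per-spot signal-to-noise over triplicate slides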
# ASSAY_SETUP: fibrinogen-A647 binding fluorescence, higher = more signal
Below: a set of entries, each annotated with reported composite z-score.
OBSERVED_PROPERTY: composite z-score

INSERT INTO results (molecule, value_observed) VALUES
  ('COC(OC)[C@@H](C)[C@H](OC)[C@@H](C)[C@H](OC)c1ccccc1', -0.353),
  ('CCOC(=O)[C@H](Cc1ccccc1)NC(=O)CCC1CC(OC(=O)NCCc2ccc(F)cc2)CC2(CCCC(COC(=O)NCCC(C)C)O2)O1 (some centres undefined)', 0.871),
  ('CC=CC1=C(CO)[C@H](O)[C@H]2O[C@H]2[C@@H]1O', -0.0599),
  ('CC1(C)O[C@H]2O[C@H]([C@H](O)CON=C3[C@H]4CCn5c(=O)n(-c6ccccc6)c(=O)n5[C@H]4[C@H](O)[C@@H]4O[C@H]34)[C@H](O)[C@H]2O1', 0.0946);
